# Protocol Text: self-splicing fitness, log relative to wild type (ln ratio); higher = more splicing; Tetrahymena group I intron in knt gene, E. coli kanamycin selection, DiMSum; sequences stand for … in CUCUCU…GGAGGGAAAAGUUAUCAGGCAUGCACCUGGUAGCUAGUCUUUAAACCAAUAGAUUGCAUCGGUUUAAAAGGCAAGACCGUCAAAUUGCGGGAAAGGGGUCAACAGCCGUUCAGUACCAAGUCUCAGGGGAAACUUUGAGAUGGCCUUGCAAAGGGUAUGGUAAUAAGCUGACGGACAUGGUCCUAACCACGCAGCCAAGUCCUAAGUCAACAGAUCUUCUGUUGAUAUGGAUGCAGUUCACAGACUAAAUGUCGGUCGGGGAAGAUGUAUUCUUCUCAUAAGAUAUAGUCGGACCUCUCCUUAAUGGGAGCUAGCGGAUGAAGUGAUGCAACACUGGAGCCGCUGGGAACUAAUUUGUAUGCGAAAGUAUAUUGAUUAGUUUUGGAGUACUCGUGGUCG;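 note: selection with 25 µg/mL kanamycin versus none on LB agar overnight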
# Test Conditions: 30 °C
Kindly supply the reported self-splicing fitness (ln) values for the records listed here.
Numbers only.

Example results:
CUGUAGCAAUAUUACGCAAG : -2.47
GCUUAGCAAUAUUACGCACA : -1.02
UAACAGCAAUAUUACGCAAA : -3.11
AGCGAGCAAUAUUACGGCCA : -1.8
AUGCAGCAAUAUUACGUAUU : -4.03

// each sequence listed below needs its self-splicing fitness (ln)
1. CUUAAGCAAUAUUACGAUUU
2. GACUAGCAAUAUUACGUUGA
3. UUGUAGCAAUAUUACGUAUG
4. CCCAAGCAAUAUUACGGCUC
5. GUCGAGCAAUAUUACGUCAA

Output:
1. -4.53
2. -2.07
3. -1.99
4. -2.28
5. -2.62

// each sequence listed below needs its self-splicing fitness (ln)
1. UUGGAGCAAUAUUACGUCUA
2. AUUAAGCAAUAUUACGAACC
3. CUGAAGCAAUAUUACGGAGG
4. UUGAAGCAAUAUUACGAGGC
5. AUACAGCAAUAUUACGGCCC

Output:
1: -1.99; 2: -1.35; 3: -3.67; 4: -3.28; 5: -1.15
